# ASSAY PROTOCOL: yeast display, Sf9 membrane polyspecificity reagent, FACS + sequencing; frameworks hold sequencing errors
ASSAY ENDPOINT: polyreactivity (PSR sort gate)

QVQLVESGGGLVQAGGSLRLSCAASGRIFHRYAMGWYRQAPGKERELVAAISYSTARTYYADSVKGRFTISRDNAKNTVYLQMNSLKPEDTAVYYCAARYQGGYDYWGQGTQVTVSS ... high polyreactivity
QVHLVESGGGLVQAGGSLRLSCAASGYIFTIYAMGWYRQAPGKERELVAAITSGGSTSYADSVKGRFTISRDNAKNTVYLQMNSLKPVDTAVYYCAAASVYAGLYYLWVYTGYDYWGQGTQVTVSS ... high polyreactivity
QVQLVESGGGLVQAGGSLRLSCAASGGTFKLYAMGWYRQAPGKERELVAAISRRGGSTYYADSVKGRFTISRDNAKNTVYLQMNSLKPEDTAVYYCAAPGPTQSTQRGGYWGQGTQVTVSS ... high polyreactivity
QVKLVESGGGLVQAGGSLRLSCAASGRIFSGYAMGWYIQAPGKESEFVAAITWNGVSTYYADSVKVRFTISRDNAKNTVYLLMNSLKPEDTAVYYCAKDYVYYPSYRGSVNYWGQGTQVTVSS ... low polyreactivity
QVQLVESGGGLVQAGGSLRLSCAASGRILWYNAMGWYRQAPGKERELVAAINRGGSTNYADSVKGRFRISRDNAKNTVYLQMNSLKPEDTAVYYCAAVHYRWWYRSAYDYWGQGTQVTVSS ... low polyreactivity
QFQLVESGGGLVQAGGSLRLSCAASGSILVPNDMGWYRQAPGKEREFVAAITESDGSTYYADSVKGRFTISRDNAKNTVYLQMNSLKPEDTAVYYCASDSTGVTFVHFDYWGQGTQVTVSS ... low polyreactivity
QVHLVESGGGLVQAGGCLRLICAASGSIFVPYAMGWYRQAPVKERELVAAISRGGDTNYADSVKGRFTISRDNAKNTVYLQMKSLKPEDTAVYYCAKSGYGNRGFDYWGQGTQVSVSS ... low polyreactivity
QVQLVESGRGLVQAGCSLRLTCAASGSIFPQYAMGWYRQAPGQERELVAAITRSGGGTHYADSVKGRFTISRDNAKNTVYLQMNSLKPEDTAVYYCAKAGYRSEFEYWGQGTQVTVSS ... low polyreactivity
QVQLVESGGGLVQAGGSLRLSCAASGFTLAWYAMGWYRQAPGKERELVATIRSGGNTYYADSVKGRFTISRDNAKNTVYLQMNSLKPEDTAVYYCAKTHTYPRYGRGYDYWGQGTQVTVSS ... high polyreactivity
QVQLVESGGGLVQAGGSLRLSCAASGFIFGYYAMGWYRQAPGKERELVAAISKIGDSTYYADSVKGRFTISRDNAKNTVYLQMNSLKPEDTAVYYCNKVVRNYPRLYGHWGQGTQVTVSS ... high polyreactivity

q: Recorded polyreactivity (PSR sort gate) of QVQLVESGGGLVQAGGSLRLSCADSGNTIYGYAMGWNRQAPGKERELVASITLSGDSTYYADSVKGRFTISRDNAKNTVFLQMNRLKPEDTSVYYCSGVYTYPLGYYHYTYDYWGQGSQVTVSS , please.
a: low polyreactivity

q: Recorded polyreactivity (PSR sort gate) of QVQLVESGGGLVQAGGSLLLSSADSGSTFNYNAMGWYRQSHGKERELVAVINSGGSTYYADSVKGRFTISRDNAKNTVYLQMNSLKPEDTAVYYCAAATYRQQWHYYWGQGTQGTVSS , please.
a: high polyreactivity

q: Recorded polyreactivity (PSR sort gate) of QVQLVESGGGLVQAGGSLRLSCAASGRTFRYYAMGWYRQAPGKERELVAAITGSGGSTYYADSVKGRFTISRDNAKNTVYLQMNSLKPEDTAVYYCATRWALRWRGGYWGQGTQVTVSS , please.
a: high polyreactivity

q: Recorded polyreactivity (PSR sort gate) of QVQLVESGGGLVQAGGSLRLICAASGRTFGRNAMGWYRQAPGKERELVAAISYGGGSTYYADSVKGRFTISRDNAKNTVYLQMNSLKPEDTPGSAAAARYAYGMWGQGTQVTVSS , please.
a: low polyreactivity

q: Recorded polyreactivity (PSR sort gate) of QVQLVDSGGGLVQAGGSLRLSCAASGRTFRYYAMGSYRQAPGKERELVAAISGRGGSTYYADSVKGRFTISRDNAKNTVYLLMNSLKPADTAVYYCAKRGYYRSRRYDYWGQGTQVTVSS , please.
a: high polyreactivity

q: Recorded polyreactivity (PSR sort gate) of QVQLVESGGGLVQAGGSLRLSCAASGSILEVYAMGWYRQAPGKERELVAAISDGDSTYYADSVKGRFTISRDNAKNTVYLQMNSLKPEDTAVYYCAAEFVGTLWWYDDWGQGTQVTVSS , please.
a: low polyreactivity

q: Recorded polyreactivity (PSR sort gate) of QVQLVESGGGLVQAGGSLRLSCAASGRTFGRYAMGWYRQAPWKERELVAAITVGGGSTYYADSVKGRFTISRDNAKNTVYLQMNSLKPEDTAVYYCNALHTYTYRYDYYYWGQGTQVTVSS , please.
a: high polyreactivity

----------
# ASSAY PROTOCOL: yeast display, Sf9 membrane polyspecificity reagent, FACS + sequencing; frameworks hold sequencing errors
ASSAY ENDPOINT: polyreactivity (PSR sort gate)

QVQLEESGGGLVQAGGSLRLSCAASGNTFPGYAMGWYRQAPGKERELVARISRSGGSTYYADSVKGRFTISRDNAKKTVYLQMNSLKPEDTAVYYCAAGAYRSGGYSFDYWGQGTQVTVSS ... low polyreactivity
QDQLVETGGGLVQAGGSLRLSCAASGSTFWGNAMGWYRQAPGKESELVAAISTSDTSTYYADSVKGRFTISRDNAKNTVYLQMNSLKPEDTAVYYCAAEWYYGEKYDYWGQGTQVTVSS ... low polyreactivity
QVQLVESGGGLVQAGGSLRLSCAASGITFRRYGMGWYRQAPGKERELVATITSSVGSRTYYADSVKGRFTISRDNAKNTVYLQMNSLKPEDTAVYYCAADHRVYDYEYWGQGTQVTVSS ... low polyreactivity
NVQLVESGGGLVQAGGSLRLSCAASGRTFNGYAMGWYRQAPGKERDLVASISWSGGRTYYADSVKGRFTISRDNAKNTVYLQMNSLKPEDTAVYYCAATFVNVVGYDYWGQGTQVTVSS ... high polyreactivity
QVQLQESGGALVQAGGSLRLSCAASGNIYDADIMGWYRQAPGKERELVTSITDGGSTNYADSVKGRFTISRDNAKNTVYLQMNSLKPQDTAVYYCAAIAYPDIPTSFDYNSDYSYWGQGTQVTVSS ... low polyreactivity
QVQLVESGGGLVQAGGSLRLSCAASGSTLGRYAMGWYRQAPGKERELVASITWSDDSTYYADSVKGRFTISRDNAKNTVSLQMNSLKPEDTAVYYCAAAANLYTYRFYYWGQGTQVTVSS ... low polyreactivity
QVQLVESGGGLVQAGGSLRLSCAASGSTFWNYAMGWYRQAPGKERELVASIDSSDGRTYYADSVKGRYTISRDNAKTTVYVQMNSLKPEDTAAYYCAKDAYAVELRPYSKLSSRAVGYWGQGTQVTVSS ... low polyreactivity
QVQLVESGGGLVQAGGSLRLSCAASGSIISGYAMGLDRQARGKERDLVAAISSGGRTKYADSVKGRFTISRDNAKNTVYLQMNSLKPEDTAVYYCNVSYLVYRWIFGWSLDYWGQGTQVTVSS ... low polyreactivity
QVQLVESGGGLVQAGGSLRLTCAASGNIFYINAMGSYRQAPGKDRELVAAIRGGGSTYYADSVKGRFTISRDNAKKTVYLQMTSLKAEDTAVYYCAARGRRLNPQYRAFGMDYWGQGTQVTVSS ... high polyreactivity
QVQLVESGGGIVQAGGSLRLSCAASGIIFTGNAMGWYIQAPGKERELVAAITSGDTTNYADSVKGRFTISRDNAKNTVYLQMNSLKPEDTAVYYCAKELQVRQAGDYWGQGTQVTVSS ... low polyreactivity

Let us examine a further case.
q: Recorded polyreactivity (PSR sort gate) of QVQLVESGGGLVQAGGSLRLSCAASGSILAINAMGWYRQAPGKERELVAAINWSRGSTFYADSVKGRFTISRDNAKNTVYLQMNSLKPEDTAVYYCNVEWTDSERGDYYVDYDYWGQGTQVTVSS , please.
a: low polyreactivity

----------
# ASSAY PROTOCOL: yeast display, Sf9 membrane polyspecificity reagent, FACS + sequencing; frameworks hold sequencing errors
ASSAY ENDPOINT: polyreactivity (PSR sort gate)

Example cases with answers are listed next.
QVQLVESGGGLVQAGGSLRLSCAASGFIFAWYAMGWYRQAPGKERELVADITSGGDTSYADSVKGRFTISRDNAKNTVYLQMNSLKPEDTAVYYCARDVYIWYGYGYFPEYEYWGQGTQVTVSS ... low polyreactivity
QVQLVESVGGLVQAGGSLRLSCAASGSIFLQYTMGWYRQAPGKERELVAAITESDGSTYYADSVKGRFTISRDNAKNTVYLQMNSLKPEDTAVYYCAADVVYFKYWDKYDYWGQGTQVTVSS ... low polyreactivity
QVQLVESGGGLVQAGGSLRLSCAASGITFTIYGMGWYRQATGKERELVAVISRRGGSTYYADSVKGRFTISRDNAKNTVYLQMNSLKPEDTAFYYCNTRTQGAKQYTGYDYWGQGTQVTVSS ... high polyreactivity
QVQLVESGGGLVQAGGSLRLSCAASGLTLSYNAMGWYRQAPGKERELVAAIRSGGSTNYADSVKGRFTISRDNAKNTVYLQMNSLKPVDTAVYYCAARFRYLPYRYGRYQSGYEYWGQGTQVTVSS ... high polyreactivity

Let us examine a further case.
q: Recorded polyreactivity (PSR sort gate) of QVQLVESGGGLVQAGGSLRLSCAASGLIFVVYVMGWYRQAPGKERQLVAAMYGSGDSTYYADSVKGRFTISRDNAKNSVSLKMNSLKPEDTAVYSCAAKAFISDGYWYGYWGQGTQVTVSS , please.
a: high polyreactivity
